# Tested on: Rattus norvegicus
# Experiment Description: Antihyperlipidemic activity in high-cholesterol diet fed Wistar albino rat model assessed as increase in serum HDL level at 20 mg/kg, po
# Type: functional
Calls of active or inactive are those of the source. The calls are words filed in the database; no cut-off is given here.
Experimental Readout: Activity

Example entries begin here.
Compound: COc1ccc(NC(=O)C(C)Oc2ccc3ccccc3c2)cc1 (stereo unspecified)
Result: Active
//
Compound: CC1=NN(C(=O)C(C)Oc2ccc3ccccc3c2)C(=O)C1 (stereo unspecified)
Result: Active
//
Compound: CC(Oc1ccc2ccccc2c1)c1n[nH]c(=S)o1 (stereo unspecified)
Result: 55.42%
//
Compound: C=CCNC(=S)NNC(=O)C(C)Oc1ccc2ccccc2c1 (stereo unspecified)
Result: Active
//
Compound: CC(Oc1ccc2ccccc2c1)c1n[nH]c(=S)n1-c1ccccc1 (stereo unspecified)
Result: 47.78%

Form field Activity, entry C/C(=N\NC(=O)C(C)Oc1ccc2ccccc2c1)c1ccc(Br)cc1 (stereo unspecified) : Active

----------
# System: Rattus norvegicus
# Experiment Description: Antihyperlipidemic activity in high-cholesterol diet fed Wistar albino rat model assessed as increase in serum HDL level at 20 mg/kg, po
# Assay type: functional
Calls of active or inactive are those of the source. The calls are words filed in the database; no cut-off is given here.
Experimental Readout: Activity

Example entries begin here.
Molecule: Cc1ccc(C)c(OCCCC(C)(C)C(=O)O)c1 [GEMFIBROZIL]
Experimental Readout: Activity
Result: 25.18%

Molecule: CC(C)=NNC(=O)C(C)Oc1ccc2ccccc2c1 (stereo unspecified)
Experimental Readout: Activity
Result: Active

Molecule: CCNC(=S)NNC(=O)C(C)Oc1ccc2ccccc2c1 (stereo unspecified)
Experimental Readout: Activity
Result: Active

Molecule: CC(Oc1ccc2ccccc2c1)C(=O)N1N=C(c2ccccc2)CC1(O)c1ccccc1 (stereo unspecified)
Experimental Readout: Activity
Result: 49.73%

Molecule: CC(Oc1ccc2ccccc2c1)C(=O)NNC(=S)Nc1ccccc1 (stereo unspecified)
Experimental Readout: Activity
Result: Active

Form field Activity, entry CCSc1nnc(C(C)Oc2ccc3ccccc3c2)n1CC (stereo unspecified) : Active

Form field Activity, entry CCSc1nnc(C(C)Oc2ccc3ccccc3c2)n1-c1ccccc1 (stereo unspecified) : 51.21%

----------
# Test system: Rattus norvegicus
# Experiment Description: Antihyperlipidemic activity in high-cholesterol diet fed Wistar albino rat model assessed as increase in serum HDL level at 20 mg/kg, po
# Format: functional
Calls of active or inactive are those of the source. The rule behind the calls is not given here.

Compound: COc1ccc(/C=N/NC(=O)C(C)Oc2ccc3ccccc3c2)cc1 (centres undefined)
Target Or System: Rattus norvegicus
Activity: Active
--
Compound: CC(Oc1ccc2ccccc2c1)C(=O)N/N=C/c1ccc([N+](=O)[O-])cc1 (centres undefined)
Target Or System: Rattus norvegicus
Activity: Active
--
Compound: CC(Oc1ccc2ccccc2c1)C(=O)O (centres undefined)
Target Or System: Rattus norvegicus
Activity: Active
--
Compound: CCn1c(C(C)Oc2ccc3ccccc3c2)n[nH]c1=S (centres undefined)
Target Or System: Rattus norvegicus
Activity: 48.25%

Taken from ChEMBL document CHEMBL1154050.
